Data provenance is the supplement of paper PMC10338343.

System: MILI (PIWIL2) piRISC loaded with piRNA #1 (26 nt);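 further: 1 nM active piRISC with 0.1 nM target library at 33 °C single turnover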
Test Name: pre-steady-state target cleavage rate (min^-1); guide: piRNA #1 5'p-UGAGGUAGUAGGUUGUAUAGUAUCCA; higher = faster piRNA-guided slicing of the target
Condition Notes: auxiliary factor: 500 nM mouse GTSF1
Listing: pre-steady-state target cleavage rate of selected sequences
Assay Metric: pre-steady-state target cleavage rate

sequence_entry=GGAGACGAUACUUAUACAACCUACUACCUCA assay_metric="pre-steady-state target cleavage rate" test_value=0.139
sequence_entry=GGAGACGAUACUAUACAACCUACUACCACA assay_metric="pre-steady-state target cleavage rate" test_value=0.185
sequence_entry=GGAGAGGAUUACUAUACAACCUACUACCUCA assay_metric="pre-steady-state target cleavage rate" test_value=0.132
sequence_entry=GGAGACCUAUGAUAACAACCUACUGCCUCA assay_metric="pre-steady-state target cleavage rate" test_value=0.00428
sequence_entry=GGAGUGGAUACUAUACAACCAUACUACCUCA assay_metric="pre-steady-state target cleavage rate" test_value=0.00751
sequence_entry=GGAGACCUAUCUAAACAACCUACUACCUGA assay_metric="pre-steady-state target cleavage rate" test_value=0.0477
sequence_entry=GGAGACCUAUGAUUACAACGUACUUCCUCA assay_metric="pre-steady-state target cleavage rate" test_value=0.00374
sequence_entry=GGAGACCUAACUAUACAUCCUACUAGCUCA assay_metric="pre-steady-state target cleavage rate" test_value=0.162

---

Item-by-item account of pre-steady-state target cleavage rate
System: MILI (PIWIL2) piRISC loaded with piRNA #1 (26 nt);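 further: 1 nM active piRISC with 0.1 nM target library at 33 °C single turnover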
Test Name: pre-steady-state target cleavage rate (min^-1); guide: piRNA #1 5'p-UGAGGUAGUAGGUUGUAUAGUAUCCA; higher = faster piRNA-guided slicing of the target
Condition Notes: auxiliary factor: 500 nM mouse GTSF1
Assay Metric: pre-steady-state target cleavage rate

sequence_entry=GGAGACCUAUGAUAUGUUCCUACUACCAUCA test_value="< 0.0001"
sequence_entry=GGAGUGGAUACAAUACAACCAACUACCUCA test_value=0.00919
sequence_entry=GGAGACCUAACUAAUCAACCUACUACCUCA test_value=0.0719
sequence_entry=GGAGAGGAUAGUAUACAACCUACUACCUGA test_value=0.0327
sequence_entry=GGAGACCUUACUAUACAACCUACUAACCUCA test_value=0.178
sequence_entry="GGAGACCAUACUAUACUUGGAUGAUGGAGA [g15:g23:cont:t1A]" test_value="< 0.0001"
sequence_entry=GGAGACCAUACUAUACAUCCUACAACCUCA test_value=0.208
sequence_entry=GGAGACCUAUGAUAUGUUCCUUCUACCUGA test_value="< 0.0001"
sequence_entry=GGAGACGAUACUAUACAAACCUACUACCUCA test_value=0.00373
sequence_entry=GGAGACGAUACUAUACAACCUACUACCGCA test_value=0.161

---

Test system: MILI (PIWIL2) piRISC loaded with piRNA #1 (26 nt);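 further: 1 nM active piRISC with 0.1 nM target library at 33 °C single turnover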
Test Name: pre-steady-state target cleavage rate (min^-1); guide: piRNA #1 5'p-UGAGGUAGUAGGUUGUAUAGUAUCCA; MIWI and MILI are mouse PIWI proteins and EfPiwi is from a freshwater sponge; tags in brackets are library labels; higher = faster piRNA-guided slicing of the target
Condition Notes: auxiliary factor: 500 nM mouse GTSF1
In this section, each of the sequences is paired with its reported pre-steady-state target cleavage rate.
Assay Metric: pre-steady-state target cleavage rate

sequence_entry=GGAGAGCAUACUAUACAACCUACUACCUGA assay_metric="pre-steady-state target cleavage rate" test_value=0.112
sequence_entry=GGAGACGAUACUAAACAACCUAGUACCUCA assay_metric="pre-steady-state target cleavage rate" test_value=0.049
sequence_entry=GGAGACCUAUCUAUAGUACCUACUACCUCA assay_metric="pre-steady-state target cleavage rate" test_value=0.092
sequence_entry=GGAGACCUAUGUAUACAACCUACUAACCUCA assay_metric="pre-steady-state target cleavage rate" test_value=0.0935
